Some compounds, each annotated with its measured RFP signal change.
test: GFP drop in mixed WT/humanized-ribosome E. coli culture – GFP/RFP fluorescence, OD600, single point, bacterial rRNA inhibitor project, primary screen (AID 720706); details: E. coli WT GFP vs humanized-ribosome RFP mutants, 24 h; measured here: RFP humanized mutant strains, DMSO median 0, no signal -100, concentration not given here
The whole screen tested about 350,000 compounds, of which about 5,500 (1.6%) were called active. The full list was thinned out, with actives kept by preference.
readoutLabel: RFP signal change (%)

{"smilesStr": "Cc1onc(-c2c(F)cccc2Cl)c1C(=O)Nc1cccc(S(=O)(=O)N2CCCCC2)c1", "u": "%", "measured": -1.93}
{"smilesStr": "Cc1cccc(-c2ccc([C@@H]3[C@@H](CO)N4CCCCN(S(=O)(=O)c5cccs5)C[C@H]34)cc2)c1", "u": "%", "measured": -1.67}
{"smilesStr": "Cc1[nH]n(C)c(=O)c1C(=O)c1c(-c2c(Cl)cccc2Cl)noc1C", "u": "%", "measured": 1.84}
{"smilesStr": "Cc1onc(-c2c(Cl)cccc2Cl)c1C(=O)NNC(=O)c1c(-c2c(Cl)cccc2Cl)noc1C", "u": "%", "measured": 1.07}
{"smilesStr": "CNC(=O)C(NC(=O)c1ccccc1)=C(C)C", "u": "%", "measured": -0.414}

* * *

assay: GFP drop in mixed WT/humanized-ribosome E. coli culture – GFP/RFP fluorescence, OD600, single point, bacterial rRNA inhibitor project, primary screen (AID 720706); settings: E. coli WT GFP vs humanized-ribosome RFP mutants, 24 h; measured here: OD600 growth, DMSO median 0, no signal -100
The whole screen tested about 350,000 compounds, of which about 5,500 (1.6%) were called active. What follows is part of a selection rich in actives, with near analogues and random picks from the rest.
readoutLabel: OD600 change (%)

{"compound": "CNC[C@H]1Oc2ccccc2CC(=O)N(C)C[C@H]1C", "measured": 4.75}
{"compound": "C=CCn1c(-c2sc(-c3ccccc3)nc2C)n[nH]c1=S", "measured": -5.31}
{"compound": "C[C@H](CO)N1C[C@H](C)[C@H](CN(C)S(C)(=O)=O)Oc2ncc(C3=CCCC3)cc2C1=O", "measured": 6.67}
{"compound": "Cc1cccc(NS(=O)(=O)c2ccc(C)c(C(=O)NCC(c3ccccc3)N(C)C)c2)c1 (stereo unspecified)", "measured": 4.97}
{"compound": "CCCCn1c(-c2cccc(C)c2)nc2cc3[nH]c(=O)c(C(C)C)nc3cc21", "measured": -62}
{"compound": "CC1CCN(c2c(NCc3ccc(C(=O)NCc4ccccc4)cc3)c(=O)c2=O)CC1", "measured": 0.92}
{"compound": "COc1ccc(N2CCN(C(=O)CCNC(=O)c3ccc(Br)cc3)CC2)cc1", "measured": 3.67}
{"compound": "CC(C)NC(=O)N(C)C[C@H]1Oc2c(cccc2N(C)C)C(=O)N(C)C[C@H]1C", "measured": 5.03}
{"compound": "C[C@@H](O)C#Cc1ccc([C@H]2[C@H]3CN(C(=O)c4ccc5c(c4)OCO5)CCCCN3[C@H]2CO)cc1", "measured": -9}
{"compound": "O=C(/C=C/c1ccc(OCc2c(F)cccc2Cl)cc1)N1CCOCC1", "measured": -72.9}
{"compound": "O=C(CCCN1CCc2[nH]c3ccc(F)cc3c2C1)c1ccc(F)cc1", "measured": -21.9}
{"compound": "C=CCNC(=S)N1CCc2[nH]c3ccccc3c2C1", "measured": -2.66}
{"compound": "CCCc1cc(=O)oc2cc(OCC(=O)Nc3ccc(CN4CCOCC4)cc3)c(Cl)cc12", "measured": 0.304}
{"compound": "C[C@@H]1CN([C@H](C)CO)C(=O)c2cc(NC(=O)NC3CCCCC3)ccc2O[C@H]1CN(C)C(=O)Nc1ccccc1", "measured": 10.1}
{"compound": "CC(C)NC(=O)Nc1ccc2c(c1)C(=O)N([C@H](C)CO)C[C@@H](C)[C@H](CN(C)S(C)(=O)=O)O2", "measured": 1.03}
{"compound": "COc1ccc(N2CCN(C(=O)CCSCc3ccccc3F)CC2)cc1", "measured": -17.7}
{"compound": "C[C@@H]1CN([C@H](C)CO)C(=O)c2cccc(NC(=O)Nc3ccc(F)cc3)c2O[C@@H]1CN(C)C(=O)Nc1ccc(C(F)(F)F)cc1", "measured": -1.07}
{"compound": "Cc1ccc(S(=O)(=O)NCCC(c2ccccc2)c2ccccc2)cc1C(=O)O", "measured": -24.2}
{"compound": "COc1ccccc1Oc1nc(-c2cccnc2)nc2ccccc12", "measured": -23.4}
{"compound": "COC(=O)c1cccc(NC(=O)c2cccc(N3C(=O)CCC3=O)c2)c1", "measured": 9.02}
{"compound": "O=C(C1CCC1)N1CC2(C1)[C@H](c1ccccc1)[C@H](CO)N2Cc1nccs1", "measured": 3.6}
{"compound": "C[C@@H]1CN([C@H](C)CO)C(=O)c2cc(NS(C)(=O)=O)ccc2O[C@H]1CN(C)C(=O)Nc1cccc2ccccc12", "measured": 10.8}
{"compound": "CC(C)NC(=O)N1CCCCN2[C@@H](CO)[C@@H](c3ccc(C#C[C@@H](C)O)cc3)[C@@H]2C1", "measured": 13.1}
{"compound": "C[C@@H]1CN([C@@H](C)CO)C(=O)Cc2cc(NC(=O)Nc3ccc(C(F)(F)F)cc3)ccc2O[C@H]1CN(C)Cc1ccc(C(=O)O)cc1", "measured": -39.2}
{"compound": "Cc1noc(C)c1S(=O)(=O)N(C)C[C@H]1OCCCC[C@H](C)Oc2ccc(NC(=O)c3ccccc3)cc2C(=O)N([C@@H](C)CO)C[C@H]1C", "measured": -0.308}
{"compound": "O=C(CCc1ccccc1F)N1CCN(c2ccccc2)CC1", "measured": -5.09}
{"compound": "CC[C@H](NC(=O)[C@H](Cc1ccccc1)NC(=O)[C@H]1O[C@@H](n2cnc3c(=O)[nH]c(N)nc32)[C@H](O)[C@@H]1O)c1ccccc1", "measured": 14.1}
{"compound": "COc1ccc(S(=O)(=O)N(C)C[C@@H]2OCCCC[C@@H](C)Oc3ccc(NS(C)(=O)=O)cc3C(=O)N([C@H](C)CO)C[C@@H]2C)cc1", "measured": 6.89}
{"compound": "Cc1cc(C)cc(NC(=O)c2cccc(NC(=O)C3C4CC5OC(=O)C3C5C4)c2)c1 (stereo unspecified)", "measured": -14.4}
{"compound": "CS(=O)(=O)N1CC2(C1)[C@H](c1ccccc1)[C@@H](CO)N2C(=O)c1ccccc1", "measured": 8.82}
{"compound": "CCCNC(=O)N1CC2(CN(C(=O)C3CCCCC3)C2)c2c([nH]c3cc(OC)ccc23)[C@@H]1CO", "measured": -2.63}
{"compound": "O=C(C[C@H]1C=C[C@H](NC(=O)CC2CC2)[C@@H](CO)O1)NCc1ccccc1", "measured": -1.4}
{"compound": "CC(C)NC(=O)N(C)C[C@@H]1OCc2ccccc2-c2c(n(C)c3ccccc23)C(=O)N([C@@H](C)CO)C[C@H]1C", "measured": -5.55}
{"compound": "CCCCCn1nnnc1-c1nc2cc3ccccc3cc2[nH]c1=O", "measured": -5.54}
{"compound": "COCCCNC(=O)/C=C/c1ccc(OCc2c(F)cccc2Cl)cc1", "measured": -2.58}
{"compound": "O=C(c1ccccc1F)N1CC(=O)N2[C@H](CO)[C@@H](c3ccc(-c4cccnc4)cc3)[C@H]2C1", "measured": 20.3}

* * *

test: GFP drop in mixed WT/humanized-ribosome E. coli culture – GFP/RFP fluorescence, OD600, single point, bacterial rRNA inhibitor project, primary screen (AID 720706); details: E. coli WT GFP vs humanized-ribosome RFP mutants, 24 h; stronger effect = lower value, DMSO median 0, no signal -100
The campaign covered roughly 350,000 compounds. About 5,500 (1.6%) were called active. This is one part of a sample in which actives are shown more often than they occur.

{"molecule": "COc1ccc(NC(=O)N(C)C[C@H]2Oc3ccc(NC(=O)Nc4ccc5c(c4)OCO5)cc3C(=O)N([C@H](C)CO)C[C@H]2C)cc1", "u": "%", "GFP signal change (wild-type ribosome)": 0.515}
{"molecule": "O=C(N/N=C/c1ccc(OCc2ccccc2)cc1)c1ccc(O)cc1", "u": "%", "GFP signal change (wild-type ribosome)": -18.6}
{"molecule": "Cc1cc2ccccn2c1C(=O)c1cccc(F)c1", "u": "%", "GFP signal change (wild-type ribosome)": -7.7}
{"molecule": "Cc1nc2ccc(NC(=O)c3cccc(S(=O)(=O)N4CCOCC4)c3)cc2s1", "u": "%", "GFP signal change (wild-type ribosome)": -8.91}
{"molecule": "CCN(c1cccc(C)c1)S(=O)(=O)c1ccc(-c2coc(C)n2)cc1", "u": "%", "GFP signal change (wild-type ribosome)": -9.48}
{"molecule": "CC[C@@H]1CC=CC[C@H](C)Oc2ccccc2C(=O)N(C)[C@H](Cc2ccccc2)C(=O)N1 (mixture of isomers)", "u": "%", "GFP signal change (wild-type ribosome)": -6.42}
{"molecule": "COc1cccc(NS(=O)(=O)c2ccc(-c3coc(C)n3)cc2)c1", "u": "%", "GFP signal change (wild-type ribosome)": -28.4}
{"molecule": "O=C(N[C@@H](Cc1ccccc1)C(=O)OCc1ccccc1)c1nc[nH]c1C(=O)N[C@@H](Cc1ccccc1)C(=O)OCc1ccccc1", "u": "%", "GFP signal change (wild-type ribosome)": 8.68}
{"molecule": "O=C(Cc1cccs1)N/N=C/c1ccc(OCc2ccccc2)cc1", "u": "%", "GFP signal change (wild-type ribosome)": 6.88}
